Reference source for all entries: patent US20230102344A1

Tested System: cynomolgus TCRvβ (BJM0847) (cynomolgus)
Test Description: SPR (Biacore): antibody captured on Protein L chip, BJM0847 as analyte, 1:1 fit
Readout Kind: Kd (nM)
Just the number in nM, nothing appended.

Worked cases, answers included:
| Binder | Readout Kind | Units Symbol | Reported Measurement |
| --- | --- | --- | --- |
| A-H.59 (scFv) scFv: QVQLVQSGAEVKKPGSSVKVSCKASGHDFRLTYIHWVRQAPGQGLEWMGRIYAGSGNVKYNEKFKGRVTITADTSTSTAYMELSSLRSEDTAVYYCAVSYYSYDVLDYWGQGTTVTVSSGGGGSGGGGSGGGGSGGGGSDIQMTQSPSFLSASVGDRVTITCKASQNVADRVVWHQQKPGKAPKALIYSSSHRYKGVPSRFSGSGSGTEFTLTISSLQPEDFATYFCQQFKSYPLTFGQGTKLEIK | Kd | nM | 5 |
| A-H.60 (scFv) scFv: QVQLVQSGAEVKKPGSSVKVSCKASGHDFKLTYIHWVRQAPGQGLEWMGRVSAGSGNTKYNEKFKGRVTITADTSTSTAYMELSSLRSEDTAVYYCAVSYYSYDVLDYWGQGTTVTVSSGGGGSGGGGSGGGGSGGGGSDIQMTQSPSFLSASVGDRVTITCKASQNVGDRVAWHQQKPGKAPKALIYSSSHRYKGVPSRFSGSGSGTEFTLTISSLQPEDFATYFCQQFKSYPLTFGQGTKLEIK | Kd | nM | 1.6 |

Here is another binder to look at.
GET /values?readout=Kd&item= BJM0498 (scFv, part only; not given: Fc scaffold making it bivalent, part only) scFv, part: QVQLVQSGAEVKKPGSSVKVSCKASGTDFKLTYIHWVRQAPGQGLEWMGRIFPGSGNVKYNEKFKGRVTITADTSTSTAYMELSSLRSEDTAVYYCAGSYYSYDVLDYWGQGTTVTVSSGGGGSGGGGSGGGGSGGGGSDIQMTQSPSFLSASVGDRVTITCKASQNVDNRVAWYQQKPGKAPKALIYSSSHRYKGVPSRFSGSGSGTEFTLTISSLQPEDFATYFCQQFKSYPLTFGQGTKLEIK
86
